MEASURED_PARAMETER: melting point

Below: 8 compounds and their reported melting point.
In [3]: df
Out[3]:
                                   compound  measured_parameter    assay_value
0  COc1cc(N(Cc2nc(C)c3ccccc3n2)S(=O)(=O)c2c(C)cc(C)cc2C)cc(OC)c1OC [Compound 10f]       melting point  154 to 155 °C
1  COc1cc(N(Cc2nc(C)c3ccccc3n2)C(=O)c2ccccc2Cl)cc(OC)c1OC [Compound 11d]       melting point  190 to 191 °C
2  COc1cc(N(Cc2nc(C)c3ccccc3n2)S(=O)(=O)c2cccs2)cc(OC)c1OC [Compound 10i]       melting point  151 to 152 °C
3  COc1ccc(CN(c2cc(OC)c(OC)c(OC)c2)S(=O)(=O)c2ccc(Cl)cc2)cc1 [Compound 6b]       melting point  166 to 167 °C
4  COc1ccc(S(=O)(=O)N(Cc2nc(C)c3ccccc3n2)c2cc(OC)c(OC)c(OC)c2)cc1OC [Compound 10h]       melting point  129 to 130 °C
5  COc1cc(N(Cc2nc(C)c3ccccc3n2)S(=O)(=O)c2ccc(Br)cc2)cc(OC)c1OC [Compound 10c]       melting point  170 to 171 °C
6  COc1cc(N(Cc2nc(C)c3ccccc3n2)S(=O)(=O)c2ccc(C(C)(C)C)cc2)cc(OC)c1OC [Compound 10g]       melting point  144 to 145 °C
7  COc1cc(N(Cc2nc(C)c3ccccc3n2)S(=O)(=O)c2ccc(C)cc2)cc(OC)c1OC [Compound 10e]       melting point  182 to 183 °C

// batch mode: one melting point value per listed entry
1. COc1cc(N(Cc2nc(C)c3ccccc3n2)C(=O)c2ccc(C(C)(C)C)cc2)cc(OC)c1OC [Compound 11g]
2. COc1ccc(CN(c2cc(OC)c(OC)c(OC)c2)S(=O)(=O)c2cccnc2)cc1 [Compound 6g]
3. COc1cc(N(Cc2nc(C)c3ccccc3n2)C(=O)c2cccs2)cc(OC)c1OC [Compound 11j]
4. COc1cc(N(Cc2nc(C)c3ccccc3n2)C(=O)c2c(C)cc(C)cc2C)cc(OC)c1OC [Compound 11f]

Result:
["117 to 118 °C", "162 to 163 °C", "136 to 137 °C", "209 to 210 °C"]
